# credit: patent US20170081400A1

Consider the following binders and their measured Fold improvement over 320-179, TL1A induced caspase potency assay in TF-1 cells readings.
TARGET DESC: T1, human TL1A extracellular domain with N-terminal HIS and FLAG tag (human, UniProt O95150 72-251)
T1 sequence: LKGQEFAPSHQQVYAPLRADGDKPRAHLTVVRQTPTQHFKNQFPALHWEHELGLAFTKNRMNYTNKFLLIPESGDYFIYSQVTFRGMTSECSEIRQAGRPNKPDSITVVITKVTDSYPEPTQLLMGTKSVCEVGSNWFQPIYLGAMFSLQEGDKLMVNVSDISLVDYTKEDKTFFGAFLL
PROTOCOL: cell-based or functional assay
Reply numerically in fold, unit not repeated.

Please review the following examples before continuing.
BINDER: 320-585 (antibody, human IgG1, name in Kabat numbering, V domains shown, full-length human IgG1, lambda) VH: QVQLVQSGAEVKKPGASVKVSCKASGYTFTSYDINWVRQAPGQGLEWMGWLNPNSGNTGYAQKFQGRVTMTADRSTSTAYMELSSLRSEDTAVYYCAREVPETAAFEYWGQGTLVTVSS VL: QSVLTQPPSVSGAPGQRVTISCTSSSSDIGAGQGVHWYQQLPGTAPKLLIEGYYNRPSGVPDRFSGSKSGTSASLTITGLLPEDEGDYYCQSWDGTLSALFGGGTKLTVLG
TEST VALUE: 13
//
BINDER: 320-590 (antibody, human IgG1, name in Kabat numbering, V domains shown, full-length human IgG1, lambda) VH: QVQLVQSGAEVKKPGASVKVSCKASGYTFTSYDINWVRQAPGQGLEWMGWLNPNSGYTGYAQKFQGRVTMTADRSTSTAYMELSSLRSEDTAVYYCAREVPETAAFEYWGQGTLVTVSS VL: QSVLTQPPSVSGAPGQRVTISCTSSSSDIGAGQGVHWYQQLPGTAPKLLIEGYYNRPSGVPDRFSGSKSGTSASLTITGLLPEDEGDYYCQSYDGTLSALFGGGTKLTVLG
TEST VALUE: 3

Moving on to the next binder.
Recorded Fold improvement over 320-179, TL1A induced caspase potency assay in TF-1 cells for 320-591 (antibody, human IgG1, V domains shown, full-length human IgG1, lambda) VH: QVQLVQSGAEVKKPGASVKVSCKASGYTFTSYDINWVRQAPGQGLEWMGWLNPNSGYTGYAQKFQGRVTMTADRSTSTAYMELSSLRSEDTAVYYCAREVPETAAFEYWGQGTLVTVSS VL: QSVLTQPPSVSGAPGQRVTISCTSSSSDIGAGLGVLWYQQLPGTAPKLLIEGYYNRPSGVPDRFSGSKSGTSASLTITGLLPEDEGDYYCQSYDGTLSALFGGGTKLTVLG , please?
10
